# credit: paper PMC12030314

test system: plasma protein; assay: Binding of PMB in plasma, rapid equilibrium dialysis; assay type: in vitro ADME; settings: human, rapid equilibrium dialysis (Pierce RED), pooled patient plasma pH 7.4, 300 μL against PBS pH 7.4, 37 °C, triplicate, mean, read-out: plasma protein-binding ratio (converted)
Where a SMILES comes first, the peptide text is derived from it. Bridges are numbered along the chain shown (N, C = ends). [ ]: non-standard residue; d: D form. The star is where a group is joined. X1 = CC[C@H](C)CCCCC(=O)*; Dab = NCC[C@H](N)C(=O)O
Quantity Measured: fraction unbound at 4 h
No unit in the answer, please; the number alone is enough.

Record request: fraction unbound at 4 h value, item CC[C@H](C)CCCCC(=O)N[C@@H](CCN)C(=O)N[C@H](C(=O)N[C@@H](CCN)C(=O)N[C@H]1CCNC(=O)[C@H]([C@@H](C)O)NC(=O)[C@H](CCN)NC(=O)[C@H](CCN)NC(=O)[C@H](CC(C)C)NC(=O)[C@@H](Cc2ccccc2)NC(=O)[C@H](CCN)NC1=O)[C@@H](C)O [PMB, polymyxin B] (X1-[Dab]T[Dab][Dab][Dab][dF]L[Dab][Dab]T; lactam 4-C)
0.145

###

assay: Plasma pharmacokinetics of intravenous PMB in critically ill patients (UPLC-MS/MS; noncompartmental and two-compartment analysis); type: in vivo, human; details: human, plasma, iv, 50 mg; Table 2, 27 enrolled patients; mean
Where a SMILES comes first, the peptide text is derived from it. Bridges are numbered along the chain shown (N, C = ends). [ ]: non-standard residue; d: D form. The star is where a group is joined. X1 = CC[C@H](C)CCCCC(=O)*; Dab = NCC[C@H](N)C(=O)O
Quantity Measured: Vd (L)
// note: answer is a bare numeric in L

Vd for CC[C@H](C)CCCCC(=O)N[C@@H](CCN)C(=O)N[C@H](C(=O)N[C@@H](CCN)C(=O)N[C@H]1CCNC(=O)[C@H]([C@@H](C)O)NC(=O)[C@H](CCN)NC(=O)[C@H](CCN)NC(=O)[C@H](CC(C)C)NC(=O)[C@@H](Cc2ccccc2)NC(=O)[C@H](CCN)NC1=O)[C@@H](C)O [PMB, polymyxin B] (X1-[Dab]T[Dab][Dab][Dab][dF]L[Dab][Dab]T; lactam 4-C) ?
30.4

###

assay: Plasma pharmacokinetics of intravenous PMB in critically ill patients (UPLC-MS/MS; noncompartmental and two-compartment analysis); format: in vivo, human; settings: human, plasma, iv, 50 mg; Table 2, 27 enrolled patients; mean
Where a SMILES comes first, the peptide text is derived from it. Bridges are numbered along the chain shown (N, C = ends). [ ]: non-standard residue; d: D form. The star is where a group is joined. X1 = CC[C@H](C)CCCCC(=O)*; Dab = NCC[C@H](N)C(=O)O
Quantity Measured: clearance (mL/min)
Give just the number in mL/min; leave the unit off.

// clearance lookup, key: CC[C@H](C)CCCCC(=O)N[C@@H](CCN)C(=O)N[C@H](C(=O)N[C@@H](CCN)C(=O)N[C@H]1CCNC(=O)[C@H]([C@@H](C)O)NC(=O)[C@H](CCN)NC(=O)[C@H](CCN)NC(=O)[C@H](CC(C)C)NC(=O)[C@@H](Cc2ccccc2)NC(=O)[C@H](CCN)NC1=O)[C@@H](C)O [PMB, polymyxin B] (X1-[Dab]T[Dab][Dab][Dab][dF]L[Dab][Dab]T; lactam 4-C)
26.7
